study system: human OX40, cell surface-expressed (human) (UniProt P43489)
Sequence (P43489 29-277): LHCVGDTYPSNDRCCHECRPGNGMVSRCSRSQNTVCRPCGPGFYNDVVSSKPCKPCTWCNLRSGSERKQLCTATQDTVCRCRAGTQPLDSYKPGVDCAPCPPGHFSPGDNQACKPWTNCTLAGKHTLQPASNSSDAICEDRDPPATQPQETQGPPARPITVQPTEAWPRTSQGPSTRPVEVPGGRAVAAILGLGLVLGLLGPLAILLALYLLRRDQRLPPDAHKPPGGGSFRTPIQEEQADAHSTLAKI
assay procedure: flow cytometry, HEK293F cells with human OX40
property measured: EC50 (read off the curve) (µg/mL)
Quick note: give the figure in µg/mL, leave out the unit.

Past entries and their recorded results:
IgG1-CD134-RG7888 (antibody, INN chains, looked up, V domains shown, IgG1) VH: EVQLVQSGAEVKKPGASVKVSCKASGYTFTDSYMSWVRQAPGQGLEWIGDMYPDNGDSSYNQKFRERVTITRDTSTSTAYLELSSLRSEDTAVYYCVLAPRWYFSVWGQGTLVTVSS VL: DIQMTQSPSSLSASVGDRVTITCRASQDISNYLNWYQQKPGKAPKLLIYYTSRLRSGVPSRFSGSGSGTDFTLTISSLQPEDFATYYCQQGHTLPPTFGQGTKVEIK	0.05
IgG1-CD134-MEDI0562 (antibody, INN chains, looked up, V domains shown, IgG1) VH: QVQLQESGPGLVKPSQTLSLTCAVYGGSFSSGYWNWIRKHPGKGLEYIGYISYNGITYHNPSLKSRITINRDTSKNQYSLQLNSVTPEDTAVYYCARYKYDYDGGHAMDYWGQGTLVTVSS VL: DIQMTQSPSSLSASVGDRVTITCRASQDISNYLNWYQQKPGKAPKLLIYYTSKLHSGVPSRFSGSGSGTDYTLTISSLQPEDFATYYCQQGSALPWTFGQGTKVEIK	0.06

## Task Recorded EC50 (read off the curve) for IgG1-CD134-GBR830 (antibody, INN chains, looked up, V domains shown, IgG1) VH: QVTLKESGPALVKPTQTLTLTCSFSGFSLSTSGMGVGWIRQPPGKALEWIAHIWWDDDKYYNTALKTRLTISKDTSKNQVVLTMTNMDPVDTATYYCARIDWDGFAYWGQGTLVTVSS VL: EIVLTQSPATLSLSPGERATLSCRASSSVSYMHWYQQKPGQAPRPWIYATSNRATGIPARFSGSGSGTDYTLTISSLEPEDFAVYYCQQWSSNPWTFGQGTKVEIK , please?
## Result 0.06

## Task Would you mind doing IgG1-CD134-ABBV368 (antibody, INN chains, looked up, V domains shown, IgG1) VH: EVQLVESGGGLVQPGGSLRLSCAASGFTFSRYGMSWVRQAPGKGLELVATINSNGGRTYYPDSVKGRFTISRDNAKNSLYLQMNSLRAEDTAVYYCAREGITTAYAMDYWGQGTTVTVSS VL: DIVMTQSPDSLAVSLGERATINCKASQSVDYDGDSYMHWYQQKPGQPPKLLIYAASILESGVPDRFSGSGSGTDFTLTISSLQAEDVAVYYCQQSNEDPRTFGGGTKVEIK as well?
## Result 0.05

Data origin: patent US20240376221A1
